- Test system: NCI/ADR-RES
- testSummary: NCI tumour cell line growth inhibition, 48 h
Activity calls are given as the source filed them. Cut-off read from the data, not from the text of the source: active = GI50 up to about 1.1 µM and inactive = higher.
Use one of these outcomes when replying: Yes = active, No = inactive

molecule	discreteLabel
O=C(O)C1CC(O)CN1 (configuration not stated)	No
O=C1C=C(Sc2ccccc2)c2nccc3c2c1nc1ccccc13	No
CS(=O)(=O)O[C@H]1CN2C[C@@H](O)[C@@H](O)[C@H]2[C@H]1CO.[B]	No
COc1ccc(/C=N/n2c(-c3ccccc3)n[nH]c2=O)c(OC)c1	No
Cc1c(Cl)c(=O)oc2cc(OCC(=O)c3ccccc3)ccc12	No

Q: Fill in: this test's call for `CCC(=O)NC(NNS(=O)(=O)c1ccc(C)cc1)(C(F)(F)F)C(F)(F)F` is ___
Ans: No

Q: Given `COc1ccc2[nH]c3c(C)c4ccncc4c(C)c3c2c1` , state the outcome it received in this test.
Ans: Yes

Q: Per the assay record, what outcome was assigned to COC1OC(C)C(NC(=O)OCC(Cl)(Cl)Cl)C2OC(C)(C)OC12 (configuration not stated) ?
Ans: No

Q: Per the records of this test, what outcome belongs to COc1ccc(N2C(=O)/C(=C\c3cccc(Oc4ccccc4)c3)SC2c2ccccc2)cc1 (configuration not stated) ?
Ans: No

Q: // return assay outcome for `Nc1ncnc2nc(N3CCN(CCO)CC3)[nH]c12`
Ans: No

Cited source: ChEMBL document CHEMBL1201862
